- Test system: Hut78 CTCL cells
- experimentDescription: cells
- Assay type: cell-based
- conditionDescription: Homo sapiens, HuT78, read-out: Cytotoxicity IC50, Hut78 CTCL cells
Parameter: IC50. Scope: all listed entries.
readoutKind: IC50

• CN1CC[C@H](c2c(O)cc(O)c3c(=O)cc(-c4ccccc4Cl)oc23)[C@H](O)C1 [FVP, Flavopiridol] = 0.094 µM
• O=c1c(O)c(-c2cc(O)c(O)c(O)c2)oc2cc(O)cc(O)c12 [Myricetin] = 19.2 µM

* * *

- testTarget: p38δ (Homo sapiens)
- Construct: human recombinant p38α, β, γ, or δ protein kinases (active full-length) were acquired from SignalChem
- Sequence (O15264 whole entry): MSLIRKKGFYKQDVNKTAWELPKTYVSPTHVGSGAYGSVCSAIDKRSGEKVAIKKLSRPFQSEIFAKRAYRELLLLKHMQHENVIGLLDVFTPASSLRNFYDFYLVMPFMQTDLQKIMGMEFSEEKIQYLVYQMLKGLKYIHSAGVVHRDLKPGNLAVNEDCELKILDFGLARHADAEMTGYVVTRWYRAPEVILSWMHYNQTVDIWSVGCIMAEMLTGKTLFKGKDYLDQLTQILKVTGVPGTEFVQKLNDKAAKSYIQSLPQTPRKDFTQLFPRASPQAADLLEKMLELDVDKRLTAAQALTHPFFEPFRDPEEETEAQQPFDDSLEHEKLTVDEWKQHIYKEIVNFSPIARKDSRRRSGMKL
- experimentDescription: In vitro kinase assay using ADP-Glo, p38δ
- conditionDescription: cell-free
- Experimental: Therefore, we attempted to screen p38γ inhibitors from […] by performing an in vitro kinase assay using ADP-Glo as readout for activated p38 isoforms. To identify p38γ inhibitors using in vitro kinase assay, a library of kinase inhibitors was screened. The library consists of 244 compounds on three plates (EMD Cat#539744, #539745 and #539746) that are mostly ATP mimics. […] IC50 values were determined using CalcuSyn software (Biosoft, Cambridge, United Kingdom).
readoutKind: IC50 (µM)

• CN1CC[C@H](c2c(O)cc(O)c3c(=O)cc(-c4ccccc4Cl)oc23)[C@H](O)C1 = 0.45
